Target: human LTA4 hydrolase (Homo sapiens)
Sequence (P09960 1-611): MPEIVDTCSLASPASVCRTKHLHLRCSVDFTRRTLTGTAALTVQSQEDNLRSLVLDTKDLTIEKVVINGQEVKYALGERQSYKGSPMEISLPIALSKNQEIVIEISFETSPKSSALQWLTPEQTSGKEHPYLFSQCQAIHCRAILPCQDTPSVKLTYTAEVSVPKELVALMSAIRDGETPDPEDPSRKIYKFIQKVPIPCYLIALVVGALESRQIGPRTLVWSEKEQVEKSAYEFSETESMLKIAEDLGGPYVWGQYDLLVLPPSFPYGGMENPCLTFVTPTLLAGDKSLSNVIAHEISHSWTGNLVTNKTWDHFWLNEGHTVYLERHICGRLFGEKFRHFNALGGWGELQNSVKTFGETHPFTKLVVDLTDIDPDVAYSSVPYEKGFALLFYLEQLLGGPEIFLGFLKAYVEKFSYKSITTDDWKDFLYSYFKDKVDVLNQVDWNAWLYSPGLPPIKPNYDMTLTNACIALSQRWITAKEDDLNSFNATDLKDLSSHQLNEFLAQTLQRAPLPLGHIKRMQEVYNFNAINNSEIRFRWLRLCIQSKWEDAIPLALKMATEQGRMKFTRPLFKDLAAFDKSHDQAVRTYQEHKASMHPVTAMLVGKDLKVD
API: label(entry) gives Met if the entry's IC50 is strictly smaller than 0.6 nM; on equality or larger values it gives Not met.

Answered cases to consult:
CNC(=O)C1CCN(CCc2coc3cc(Oc4ccc(-c5ccn[nH]5)cn4)ccc23)CC1: Met
O=C1OCCN1C1CCN(CC2Cc3ccc(Oc4ccc(-c5ccn[nH]5)cc4)cc3O2)CC1 (centres unmarked): Not met
O=C(CO)N1CCN(Cc2ccc3cc(Oc4ccc(-c5ccn[nH]5)cn4)ccc3n2)CC1: Not met
c1cc(-c2ccc(Oc3ccc4[nH]c(CNCC5CCOCC5)nc4c3)cc2)[nH]n1: Met
c1cc(-c2ccc(Oc3ccc4c(cnn4CCN4CCCC4)c3)nc2)[nH]n1: Not met
O=C1CC[C@@H](Cn2ncc3cc(Oc4ccc(-c5ccn[nH]5)cn4)ccc32)N1: Not met

Let's switch to this compound now.
## Input Answer whether the compound "COCCNCc1nc2cc(Oc3ccc(-c4ccn[nH]4)cc3)ccc2[nH]1" has IC50 strictly less than 0.6 nM
## Output Met
